# assayComment: ATG_DR4_LXR_CIS: Attagene CIS-FACTORIAL HepG2 Assay for human Liver X Receptor (LXR), DR4 submotif (AID 2282929)
# statedConditions: HepG2 Attagene DR4 cis-reporter, mRNA transcription; actives raise or lower the signal
# Protocol: ATG_CIS is a cell-based, multiplexed-readout assay that uses HepG2, a human liver cell line, with measurements taken at 24 hours after chemical dosing in a 24-well plate.ATG_DR4_LXR_CIS is one of 52 assay component(s) measured or calculated from the ATG_CIS assay. […] This assay endpoint, ATG_DR4_LXR_CIS, was analyzed with bidirectional fitting relative to DMSO as the negative control and baseline of activity. […]
Active and inactive are the calls of the source. The calls were made as follows: active = hit-call score of the fitted dose curve at least 0.9, where 1 is the maximum; inactive = score below 0.9.
measuredAttribute: AC50

>>> resultvalue("COCCO")
"inactive"
>>> resultvalue("O=C(c1ccc(O)cc1O)c1ccc(O)cc1O")
"inactive"
>>> resultvalue("c1ccc(Nc2ccccc2)cc1")
"inactive"
>>> resultvalue("CC1(C)C(C=C(Cl)Cl)C1C(=O)OCc1cccc(Oc2ccccc2)c1 (stereo not drawn)")
"29.9 µM (active)"
>>> resultvalue("C=CCOC(Cn1ccnc1)c1ccc(Cl)cc1Cl (stereo not drawn)")
"76.1 µM (active)"
>>> resultvalue("CCN(CC)C(=O)c1cccc(C)c1")
"inactive"
>>> resultvalue("COC(=O)c1ccc(CNS(C)(=O)=O)cc1S(=O)(=O)NC(=O)Nc1nc(OC)cc(OC)n1")
"inactive"
>>> resultvalue("CC(C)(C)[C@@H](O)[C@@H](Cc1ccc(Cl)cc1)n1cncn1")
"inactive"
>>> resultvalue("CCOC(=O)C(C)Oc1ccc(Oc2nc3ccc(Cl)cc3o2)cc1 (stereo not drawn)")
"inactive"
>>> resultvalue("COC(=O)CSc1cc(N=c2sc(=O)n3n2CCCC3)c(F)cc1Cl")
"inactive"
>>> resultvalue("CCCOC(=O)c1ccc(C(=O)OCCC)nc1")
"inactive"
>>> resultvalue("COC(=O)c1ccccc1C(=O)O")
"inactive"
>>> resultvalue("COc1c(Cl)ccc(Cl)c1C(=O)O")
"inactive"
